assay: P. falciparum Dd2 growth inhibitors, primary screen, SYBR Green fluorescence, single dose replicates (AID 1159554); details: 72 h, at 10 µM, hits give low values
About 2,100 (2.2%) of roughly 94,000 compounds were called active. What follows is part of a selection rich in actives, with near analogues and random picks from the rest.
activity change by entry:
Write it as a number; the unit % goes unstated.

// known answers, use as guide
sampleSmiles	activity change / %
Cc1ccc(S(=O)(=O)Nc2ccc3c(c2)C(=O)N([C@H](C)CO)C[C@H](C)[C@@H](CN(C)S(=O)(=O)c2cn(C)cn2)OCCCC[C@H](C)O3)cc1	-12.5
C[C@@H]1CCCCO[C@@H](CN(C)S(=O)(=O)c2cn(C)cn2)[C@H](C)CN([C@H](C)CO)C(=O)c2cc(NS(=O)(=O)c3ccc(Cl)cc3)ccc2O1	-31.8
CCCNC(=O)c1cc2c(c(-c3cccc(-c4ccc(F)cc4)c3)n1)[C@@H](CCO)N([S@](=O)C(C)(C)C)C2	-18.8
C[C@@H]1CN([C@@H](C)CO)C(=O)c2cccc(NC(=O)Nc3cccc4ccccc34)c2O[C@H]1CN(C)S(=O)(=O)c1ccccc1	-19.1
CCCNC(=O)C[C@H]1CC[C@@H]2[C@H](COc3ccc(NC(=O)c4ccc(OC)cc4)cc3C(=O)N2C)O1	-22.5
C[C@H]1CN([C@@H](C)CO)C(=O)c2cccc(NC(=O)CCCCCC(=O)Nc3ccccc3N)c2O[C@@H]1CN(C)S(=O)(=O)c1cn(C)cn1	22.6

// next entry
# lookup: activity change of COc1ccc(S(=O)(=O)N(C)C[C@H]2Oc3c(NC(=O)Nc4cccc5ccccc45)cccc3C(=O)N([C@@H](C)CO)C[C@H]2C)cc1 -88.1

====

assay: P. falciparum Dd2 growth inhibitors, primary screen, SYBR Green fluorescence, single dose replicates (AID 1159554); settings: 72 h, at 10 µM, hits give low values
The whole screen tested about 94,000 compounds, of which about 2,100 (2.2%) were called active. The sample as a whole holds a higher share of actives than the screen did.
activity change by entry:
Write it as a number; the unit % goes unstated.

// known answers, use as guide
sampleSmiles	measurementUnits	activity change
C[C@@H]1CN([C@@H](C)CO)S(=O)(=O)c2ccc(C#Cc3ccccc3)cc2O[C@@H]1CN(C)C(=O)C1CC1	%	-82.5
C[C@@H]1CN([C@@H](C)CO)C(=O)Cc2cc(NC(=O)C3CCCCC3)ccc2O[C@@H]1CN(C)Cc1ccc(-c2ccccc2)cc1	%	-20.2
C[C@@H]1CN([C@@H](C)CO)C(=O)Cc2cc(NC(=O)C3CCCCC3)ccc2O[C@@H]1CN(C)Cc1ccc(C(=O)Nc2ccccc2N)cc1	%	-83.7
N#C[C@@H]1[C@H](c2ccccc2-c2ccc(F)cc2)[C@@H](CO)N1c1ncc(-c2ccccc2)s1	%	27.4

# lookup: activity change of CNC[C@@H]1Oc2cc(C#Cc3ccc(F)cc3)ccc2S(=O)(=O)N([C@@H](C)CO)C[C@H]1C -62.7

# lookup: activity change of CNC[C@H]1Oc2cc(C#Cc3ccccn3)ccc2S(=O)(=O)N([C@H](C)CO)C[C@@H]1C -6.84

# lookup: activity change of C[C@H]1CN([C@@H](C)CO)C(=O)Cc2cc(NS(=O)(=O)c3ccccc3)ccc2O[C@H]1CN(C)Cc1ccc(C(=O)Nc2ccccc2N)cc1 -77.2

====

experiment: P. falciparum Dd2 growth inhibitors, primary screen, SYBR Green fluorescence, single dose replicates (AID 1159554); details: 72 h, at 10 µM
The campaign covered roughly 94,000 compounds. About 2,100 (2.2%) were called active. Cut-off read from the data, not from the text of the source: active = activity change below about -80%; inconclusive = no clear call, values can overlap the other calls; inactive = above that. What follows is part of a selection rich in actives, with near analogues and random picks from the rest.
Mark one answer only. Choices: active, inactive

Solved entries (count: 5):
sampleSmiles	className
Cc1nc(N2[C@H](CO)[C@H](c3ccccc3)[C@H]2CNCC2CCC2)sc1C	active
COc1ccc2c3c([nH]c2c1)[C@H](CO)N(CC1CC1)CC31CN(C(=O)Nc2cccc(F)c2)C1	inactive
C[C@@H]1CN([C@@H](C)CO)C(=O)c2cc(NC(=O)Cc3ccccc3)ccc2O[C@@H](C)CCCCO[C@@H]1CN(C)C(=O)Nc1ccccc1	inactive
O=C(NC[C@@H]1[C@H](c2ccccc2)[C@H](CO)N1CC1CCCC1)c1cccnc1	inactive
COc1ccc2c3c([nH]c2c1)[C@@H](CO)N(C(=O)c1ccc(F)cc1)CC31CCN(C(=O)Nc2ccc(F)cc2)CC1	inactive

Query: recorded result category for CC(C)NC(=O)N(C)C[C@@H]1OCCCC[C@@H](C)Oc2ccc(NC(=O)CCCN(C)C)cc2C(=O)N([C@@H](C)CO)C[C@@H]1C in this test inactive

Query: recorded result category for O=S(=O)(NC[C@H]1[C@@H](c2ccccc2)[C@@H](CO)N1CC1CC1)c1ccccc1 in this test inactive

Query: recorded result category for COCCNC(=O)[C@@H]1[C@@H](CO)[C@@H]2Cn3c(ccc(-c4ccccc4F)c3=O)[C@@H]2N1C(=O)C1CC1 in this test inactive

Query: recorded result category for CN1C(=O)c2cc(NC(=O)c3cccc(F)c3)ccc2OC[C@H]2O[C@@H](CC(=O)NCc3ccccc3Cl)CC[C@@H]21 in this test inactive

Query: recorded result category for CO[C@H]1CN(C)C(=O)c2cc(NS(C)(=O)=O)ccc2OC[C@@H](C)N(Cc2ccccc2)C[C@@H]1C in this test inactive

Query: recorded result category for Cc1noc(C)c1NC(=O)N(C)C[C@H]1Oc2ccc(NC(=O)Cn3cnnn3)cc2CC(=O)N([C@H](C)CO)C[C@@H]1C in this test inactive

Query: recorded result category for COc1ccc2c3c([nH]c2c1)[C@H](CO)N(C(=O)Nc1ccc(F)cc1)CC31CCN(CC2CCOCC2)CC1 in this test active

====

assay: P. falciparum Dd2 growth inhibitors, primary screen, SYBR Green fluorescence, single dose replicates (AID 1159554); settings: 72 h, at 10 µM, hits give low values
The campaign covered roughly 94,000 compounds. About 2,100 (2.2%) were called active. The list comes from a sample in which actives are over-represented; it also holds close analogues and randomly drawn compounds.
endpointLabel: activity change (%)
Write it as a number; the unit % goes unstated.

sampleSmiles	measurementUnits	activity change
C/C=C/c1ccccc1[C@@H]1[C@@H](CO)N(S(=O)(=O)c2cccc(F)c2)[C@H]1C#N	%	-88
COCC(=O)Nc1ccc2c(c1)C(=O)N(C)[C@H]1CC[C@@H](CC(=O)NCc3cccc(F)c3)O[C@H]1CO2	%	-2.71
N#C[C@@H]1[C@H](c2ccccc2C2=CCCCC2)[C@@H](CO)N1S(=O)(=O)c1cccc(F)c1	%	-43.9
COc1ccc(NC(=O)Nc2ccc3c(c2)C(=O)N([C@@H](C)CO)C[C@H](C)[C@@H](CN(C)C(=O)Nc2cccc4ccccc24)OCCCC[C@@H](C)O3)cc1	%	-66

# lookup: activity change of O=C(N[C@@H]1C=C[C@@H](CC(=O)N2CCOCC2)O[C@H]1CO)c1ccccn1 35.5

# lookup: activity change of C[C@H](CO)N1C[C@H](C)[C@@H](CN(C)C(=O)Cc2ccccn2)Oc2cc(-c3cccc(C(=O)N(C)C)c3)ccc2S1(=O)=O -3.07

# lookup: activity change of CN(C)CC#Cc1ccc([C@@H]2[C@H](CO)N3CCCCN(C(=O)Nc4ccc(F)cc4)C[C@@H]23)cc1 -18.7

# lookup: activity change of Cc1ccc(S(=O)(=O)N[C@@H]2CC[C@@H](CC(=O)O)O[C@@H]2CO)cc1 10.2

# lookup: activity change of Cc1ccccc1S(=O)(=O)NCC[C@@H]1CC[C@H](NC(=O)C2CCCCC2)[C@@H](CO)O1 7.15

# lookup: activity change of Cc1ccccc1-c1ccc2c(c1)O[C@H](CN(C)Cc1ccc(C(=O)O)cc1)[C@@H](C)CN([C@H](C)CO)S2(=O)=O -8.07

# lookup: activity change of C/C=C/c1ccccc1[C@H]1[C@@H](C#N)N(C(C)=O)[C@@H]1CO 7.51

# lookup: activity change of C/C=C/c1ccccc1[C@@H]1[C@@H](C#N)N(c2nc(CC)cs2)[C@@H]1CO -18.3

# lookup: activity change of COc1ccc(C#Cc2ccc([C@H]3[C@@H](CO)N4CCCCN(C(=O)Nc5ccccc5)C[C@H]34)cc2)cc1 -69.3

====

experiment: P. falciparum Dd2 growth inhibitors, primary screen, SYBR Green fluorescence, single dose replicates (AID 1159554); conditions: 72 h, at 10 µM, hits give low values
In all, about 94,000 compounds went through this assay and about 2,100 (2.2%) were called active. What follows is part of a selection rich in actives, with near analogues and random picks from the rest.
activity change by entry:
Write it as a number; the unit % goes unstated.

sampleSmiles	activity change (%)
COCC(=O)N1CCC2(CC1)CN(Cc1ccccc1Cl)[C@H](CO)c1c2c2ccc(OC)cc2n1C	-60.4

# lookup: activity change of Cc1ccc(S(=O)(=O)N(C)C[C@H]2OCc3ccccc3-c3ccccc3C(=O)N([C@@H](C)CO)C[C@@H]2C)cc1 -59.6

# lookup: activity change of CCCN1C[C@H](C)[C@H](OC)CN(C)C(=O)c2cc(NC(=O)NC3CCCC3)ccc2OC[C@H]1C 20

# lookup: activity change of C[C@@H]1CN([C@H](C)CO)S(=O)(=O)c2ccc(C#Cc3ccccc3F)cc2O[C@@H]1CN(C)C(=O)c1ccc2c(c1)OCO2 -67

# lookup: activity change of COc1ccc2c3c([nH]c2c1)[C@H](CO)N(Cc1ccccc1Cl)CC31CN(C(=O)C2CC2)C1 -92.3

# lookup: activity change of COc1ccc2c3c(n(C)c2c1)[C@@H](CO)N(Cc1ccccc1)CC31CN(C(=O)C2CC2)C1 -20.3

# lookup: activity change of O=C(C1CCCC1)N1CC(=O)N2[C@@H](CO)[C@@H](c3ccc(-c4cccnc4)cc3)[C@@H]2C1 -20.4

# lookup: activity change of COC(=O)N(C)C[C@H]1OCc2ccccc2-c2ccccc2C(=O)N([C@@H](C)CO)C[C@H]1C 23.3

# lookup: activity change of O=C(C1CCCC1)N1CC(=O)N2[C@H](C1)[C@@H](c1ccc(-c3cccnc3)cc1)[C@@H]2CO -88.2

# lookup: activity change of C[C@H]1CN([C@@H](C)CO)C(=O)c2ccccc2-c2ccccc2CO[C@H]1CN(C)Cc1ccc(-c2ccccc2)cc1 -88.6

# lookup: activity change of CCC(=O)N1CC2(C1)CN(Cc1ccccc1Cl)[C@@H](CO)c1[nH]c3cc(OC)ccc3c12 -91.3

# lookup: activity change of COc1ccc(S(=O)(=O)N(C)C[C@@H]2OCc3ccccc3-c3ccccc3C(=O)N([C@@H](C)CO)C[C@@H]2C)cc1 -71.4

# lookup: activity change of C[C@@H]1CCCCO[C@H](CN(C)S(=O)(=O)c2cccs2)[C@@H](C)CN([C@@H](C)CO)C(=O)c2cc(NC(=O)NC3CCCCC3)ccc2O1 -76
